Source of measurements: patent US11771738B2

Tested on: third stage larvae of Haemonchus contortus
protocol_summary: Haemonchus contortus, Larvae Stage 3 (HcL3) In Vitro Assay
Format: cell-based
condition_parameters: Haemonchus contortus, 96 h, read-out: HcL3 MED, Minimum Effective Dose, H. contortus third stage larvae, approximately 96 hours
measure: minimal effective concentration

Reference set (2 entries):
CC(C)C[C@H]1C(=O)O[C@H](Cc2ccc(C(c3ccc(F)c(F)c3)n3cccn3)cc2)C(=O)N(C)[C@@H](CC(C)C)C(=O)O[C@H](C)C(=O)N(C)[C@@H](CC(C)C)C(=O)O[C@H](Cc2ccc(C(c3ccc(F)c(F)c3)n3cccn3)cc2)C(=O)N(C)[C@@H](CC(C)C)C(=O)O[C@H](C)C(=O)N1C (stereo partly drawn) [Example 1-18] :: > 100 µM
CC(C)C[C@H]1C(=O)O[C@H](Cc2ccc(Cc3cccnc3C(F)(F)F)cc2)C(=O)N(C)[C@@H](CC(C)C)C(=O)O[C@H](C)C(=O)N(C)[C@@H](CC(C)C)C(=O)O[C@H](Cc2ccc(Cc3cccnc3C(F)(F)F)cc2)C(=O)N(C)[C@@H](CC(C)C)C(=O)O[C@H](C)C(=O)N1C [Example 3-238] :: > 5 µM

Ask: Please provide the recorded minimal effective concentration for Cc1c[nH]c(C)c1Cc1ccc(C[C@H]2OC(=O)[C@H](CC(C)C)N(C)C(=O)[C@@H](C)OC(=O)[C@H](CC(C)C)N(C)C(=O)[C@@H](Cc3ccccc3)OC(=O)[C@H](CC(C)C)N(C)C(=O)[C@@H](C)OC(=O)[C@H](CC(C)C)N(C)C2=O)cc1 [Example 4-19] , tested on third stage larvae of Haemonchus contortus.
Reply: > 10 µM

###

Catalogue of minimal effective concentration readings, one per entry.
System: third stage larvae of Haemonchus contortus
protocol_summary: Haemonchus contortus, Larvae Stage 3 (HcL3) In Vitro Assay
Assay type: cell-based
condition_parameters: Haemonchus contortus, 96 h, read-out: HcL3 MED, Minimum Effective Dose, H. contortus third stage larvae, approximately 96 hours
Kindly provide the numeric value in µM only, without the unit symbol.

Reference set (4 entries):
COc1nccc(Cc2ccc(C[C@H]3OC(=O)[C@H](CC(C)C)N(C)C(=O)[C@@H](C)OC(=O)[C@H](CC(C)C)N(C)C(=O)[C@@H](Cc4ccc(Cc5ccnc(OC)c5OC)cc4)OC(=O)[C@H](CC(C)C)N(C)C(=O)[C@@H](C)OC(=O)[C@H](CC(C)C)N(C)C3=O)cc2)c1OC [Example 3-334] :: 0.1
CC(C)C[C@H]1C(=O)O[C@H](Cc2ccc(Cc3scnc3Cl)cc2)C(=O)N(C)[C@@H](CC(C)C)C(=O)O[C@H](C)C(=O)N(C)[C@@H](CC(C)C)C(=O)O[C@H](Cc2ccccc2)C(=O)N(C)[C@@H](CC(C)C)C(=O)O[C@H](C)C(=O)N1C [Example 4-107] :: 0.3
CC(C)C[C@H]1C(=O)O[C@H](Cc2ccc(Cc3ccnn3C)cc2)C(=O)N(C)[C@@H](CC(C)C)C(=O)O[C@H](C)C(=O)N(C)[C@@H](CC(C)C)C(=O)O[C@H](Cc2ccc(Cc3ccnn3C)cc2)C(=O)N(C)[C@@H](CC(C)C)C(=O)O[C@H](C)C(=O)N1C [Example 3-24] :: 1
COc1ccc(Cc2ccc(C[C@H]3OC(=O)[C@H](CC(C)C)N(C)C(=O)[C@@H](C)OC(=O)[C@H](CC(C)C)N(C)C(=O)[C@@H](Cc4ccccc4)OC(=O)[C@H](CC(C)C)N(C)C(=O)[C@@H](C)OC(=O)[C@H](CC(C)C)N(C)C3=O)cc2)c(C)n1 [Example 4-118] :: 0.3

Lab note: next molecule to report on.
Ask: Could you share which minimal effective concentration value was measured for CC(C)C[C@H]1C(=O)O[C@H](Cc2ccc(Cc3ccccc3)cc2)C(=O)N(C)[C@@H](CC(C)C)C(=O)O[C@H](C)C(=O)N(C)[C@@H](CC(C)C)C(=O)O[C@H](Cc2ccccc2)C(=O)N(C)[C@@H](CC(C)C)C(=O)O[C@H](C)C(=O)N1C [Example 2-1] ?
Reply: 0.65
